- systemTested: Cellular tumor antigen p53 (Homo sapiens) (UniProt P04637)
- Sequence (P04637 whole entry, looked up): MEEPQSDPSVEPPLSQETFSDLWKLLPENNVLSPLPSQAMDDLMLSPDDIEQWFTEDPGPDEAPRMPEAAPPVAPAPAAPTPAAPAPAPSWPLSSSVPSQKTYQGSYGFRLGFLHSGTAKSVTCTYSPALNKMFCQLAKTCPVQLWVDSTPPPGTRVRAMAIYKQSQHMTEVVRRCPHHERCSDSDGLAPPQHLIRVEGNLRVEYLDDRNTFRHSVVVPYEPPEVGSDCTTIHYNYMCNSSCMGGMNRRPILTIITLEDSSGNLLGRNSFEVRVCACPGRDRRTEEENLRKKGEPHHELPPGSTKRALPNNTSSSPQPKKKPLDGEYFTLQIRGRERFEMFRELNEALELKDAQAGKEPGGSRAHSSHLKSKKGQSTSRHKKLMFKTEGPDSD
- measurementDescription: kinase inhibitors altering GFP-p53 stability in HPV16-positive cells, imaging, known kinase inhibitor set, EGFP/DsRed ratio (AID 1053116);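 also: cells exposed to compounds for 24 h at 37 °C before reading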
- experimentalContext: active compounds read high
Field: EGFP/DsRed ratio. Provide a value for each of the compounds that follow.
Give the value as a plain number.

What measured EGFP/DsRed ratio goes with COC(=O)Nc1nc2ccc(Oc3ccc(NC(=O)Nc4cccc(Br)c4)cc3)cc2[nH]1 ? 0.0884

Lookup Fc1ccc(-c2c(-c3ccncc3)n(CCN3CCOCC3)c3cccnc23)cc1 0.18

Lookup CC(C)c1ccc(-c2cc(C3CNNC3c3ccccn3)ccn2)cc1 (stereo not given) 0.021

Lookup COc1c(C(N)=O)cc(-c2ccc(Cl)cc2)cc1-c1ccc(S(N)(=O)=O)cc1 0.128

Lookup Fc1ccc(-c2nn3ncccc3c2-c2ccnc(Nc3ccc4c(c3)OCCO4)n2)cc1 0.08

----------
- measurementDescription: HCT116 colon cancer cell growth inhibition, primary screen, CellTiter-Glo luminescence, NPC library (AID 1117342)
- experimentalContext: at 20 µM (top of the series)
observedProperty: inhibition of viability (%)
# value in %; strip the unit string

What measured inhibition of viability goes with CCN(CC)c1ccc(C(=C2C=CC(=[N+](CC)CC)C=C2)c2cc(S(=O)(=O)O)ccc2S(=O)(=O)[O-])cc1 ? 20.3

Lookup CC(O)CCCCn1c(=O)c2c(ncn2C)n(C)c1=O (configuration not stated) 0.8

Lookup c1ccc(CNCCNCc2ccccc2)cc1 -6.83

Lookup CCOC(=O)C(C#N)=C(c1ccccc1)c1ccccc1 26.4

Lookup CN1C(C(=O)Nc2ccccn2)=C(O)c2ccccc2S1(=O)=O -10.9

Lookup O=C1C(c2[nH]c3ccccc3c2O)=Nc2ccccc21 16.9

Lookup C/C(=N/NC(=O)c1ccncc1)C(=O)O -1.23

Lookup CCCCN1CCCC[C@H]1C(=O)Nc1c(C)cccc1C 23.7

Lookup O=Cc1ccc(O)c(O)c1O 44.2

Lookup CC(C(=O)O)c1ccc(/C=C2\CCCCC2=O)cc1 (configuration not stated) -19.6

Lookup CCOC(=O)c1c(N)sc2c1CCN(Cc1ccccc1)C2 47.3

Lookup O=C(CO)[C@@H](O)[C@H](O)[C@@H](O)CO 8.2

Lookup O=C(O)Cn1cnnn1 4.9

Lookup C=CCN1CCc2nc(N)sc2CC1 -4

Lookup CC[N+](CC)(CC)CCOC(=O)C(C1CCCC1)C1CCCC1 21.8

Lookup CCOC(=O)N1CCC(=C2c3ccc(Cl)cc3CCc3cccnc32)CC1 98.8

Lookup CS(=O)(=O)c1ccc(-c2cn3ccccc3n2)cc1 14.5

Lookup Cc1cccc(N(C)C(=S)Oc2ccc3c(c2)CCC3)c1 55.5

Lookup CN(C)CCCOC1(Cc2ccccc2)CCCCCC1 7.6

Lookup CCN(CC)CCNC(=O)COc1ccc(Cl)cc1 22.7

Lookup CC(CC(C#N)(c1ccccc1)C(C)C)N(C)C (configuration not stated) -4.77

Lookup CCN(CC)CC(=O)OCC(=O)[C@@]1(O)CC[C@H]2[C@@H]3CCC4=CC(=O)CC[C@]4(C)[C@H]3[C@@H](O)C[C@@]21C -15.9

Lookup c1ccc(-c2nc[nH]c2-c2ccccc2)cc1 -17.5

Lookup COC(=O)[C@H]1[C@H]2C[C@@H]3c4[nH]c5cc(OC)ccc5c4CCN3C[C@H]2C[C@@H](OC(=O)/C=C/c2ccc(O)c(OC)c2)[C@@H]1OC 85

Lookup CCCc1cc(=O)[nH]c(=S)[nH]1 -19.2

Lookup NC(N)=NN=C(/C=C/c1ccc([N+](=O)[O-])o1)/C=C/c1ccc([N+](=O)[O-])o1 99.5

Lookup CCS(=O)(=O)CCn1c([N+](=O)[O-])cnc1C 6.2

Lookup CC1(C)O[C@@H]2C[C@H]3[C@@H]4CCC5=CC(=O)C=C[C@]5(C)[C@@]4(F)[C@@H](O)C[C@]3(C)[C@]2(C(=O)CO)O1 8.4

Lookup O=C1CCC(=O)N1CO 1.8

Lookup CCCCCCCCCCCCCCCCCC(=O)[O][Al] 5.4

Lookup NCC(=O)CCC(=O)O 18.9

Lookup Nc1c(N=Nc2ccc(-c3ccc(N=Nc4cc(S(=O)(=O)O)c5ccccc5c4N)cc3)cc2)cc(S(=O)(=O)O)c2ccccc12 -132

Lookup CCCCCCCCCCCCCCCCCC(=O)O 1.8

Lookup O=C(O)CCCC[P+](c1ccccc1)(c1ccccc1)c1ccccc1 -8.2

Lookup N[C@H]1CN(c2c(F)cc3c(=O)c(C(=O)O)cn(C4C[C@@H]4F)c3c2Cl)CC12CC2 (some centres not stated) 34.3

Lookup O=C(OC1C[C@@H]2CC3C[C@@H](C1)N2CC3=O)c1c[nH]c2ccccc12 (some centres not stated) 42

Lookup Nc1ccc2c(c1)CN1C(=O)c3ccccc3C1=N2 13.1

Lookup O=C(O)CC(O)C(=O)O (configuration not stated) -8.5

Lookup FC1(F)C(F)(F)C(F)(F)C2(F)C(F)(F)C(F)(F)C(F)(F)C(F)(F)C2(F)C1(F)F (configuration not stated) -2.93

Lookup N#CC1(c2ccc(F)cc2)CCC(=O)CC1 8.6

Lookup O=C1c2c(O)ccc(O)c2C(=O)c2c(NCCNCCO)ccc(NCCNCCO)c21 101

Lookup Cc1ccc2c(Br)cc(Br)c(O)c2n1 79.2

Lookup Cc1cccc(C)c1NC(=O)CN(CC(=O)O)CC(=O)O 2.2

Lookup OC(Cn1cncn1)(Cn1cncn1)c1ccc(F)cc1F 1.7

Lookup Cc1c(Cn2ccnc2)c2ccccc2n1CCC(=O)O 103

Lookup Nc1ccc(S(=O)(=O)Nc2ccccc2)cc1 -1.7

Lookup COC(=O)c1cc(Cl)c(NC(C)=O)cc1OC -1.4

----------
- measurementDescription: differential killing of epithelial or mesenchymal cells, primary screen, imaging, PC-3E GFP, TEM4-18 mCherry, co-culture (AID 1345086);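 also: normalised mesenchymal count divided by normalised epithelial count so high means epithelial killing; cells exposed to compound for 72 h before imaging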
- experimentalContext: imaging cell counts, at 1 µM, actives lie on both sides, counts scaled to control wells, 1 = unselective
Rule: MET for red/green cell ratio (normalised) not less than 1, NOT MET for anything less.

Does the compound CC(C[N+](C)(C)C)OC(N)=O (stereo not given) have recorded red/green cell ratio (normalised) that is 1 or more? NOT MET

Lookup O=C1N=C(O)CN1/N=C/c1ccc(-c2ccc([N+](=O)[O-])cc2)o1 MET

Lookup CCN(CCO)CCCC(C)Nc1ccnc2cc(Cl)ccc12 (stereo not given) NOT MET

Lookup Clc1ccc2c(c1)C(N1CCNCC1)=Nc1ccccc1O2 MET

Lookup CCCN1C[C@H](CSC)C[C@@H]2c3cccc4[nH]cc(c34)C[C@H]21 MET

Lookup OC(CCN1CCCCC1)(c1ccccc1)C1CCCCC1 (stereo not given) MET

Lookup N[C@@H]1CONC1=O MET

Lookup Cc1ncc([N+](=O)[O-])n1CC(C)O (stereo not given) NOT MET

Lookup COC1=CC(=O)C[C@@H](C)[C@]12Oc1c(Cl)c(OC)cc(OC)c1C2=O NOT MET

Lookup NNC(=O)c1ccncc1 MET

Lookup CN1CCCC(n2nc(Cc3ccc(Cl)cc3)c3ccccc3c2=O)CC1 (stereo not given) NOT MET

Lookup N=C(N)c1ccc(OCCCCCOc2ccc(C(=N)N)cc2)cc1 NOT MET

Lookup CCOC(=O)C1=C(C)NC(C)=C(C(=O)OC)C1c1cccc([N+](=O)[O-])c1 (stereo not given) MET

Lookup Clc1cccc(Cl)c1NC1=NCCN1 MET

Lookup COc1ccc2cc(CCC(C)=O)ccc2c1 MET

Lookup Oc1c(Cl)cc(Cl)c2cccnc12 NOT MET

Lookup CNCCCC12CCC(c3ccccc31)c1ccccc12 NOT MET

Lookup CN(CCOc1ccc(CC2SC(=O)NC2=O)cc1)c1ccccn1 (stereo not given) NOT MET

Lookup CCCCNc1cc(C(=O)O)cc(S(N)(=O)=O)c1Oc1ccccc1 NOT MET

Lookup OCCN1CCN(CCCN2c3ccccc3Sc3ccc(C(F)(F)F)cc32)CC1 MET

Lookup CN(C)CCOC(c1ccccc1)c1ccccc1 MET

Lookup OCCN1CCN(CCCN2c3ccccc3Sc3ccc(Cl)cc32)CC1 MET

Lookup S=c1nc[nH]c2nc[nH]c12 NOT MET

Lookup NS(=O)(=O)c1cc2c(cc1C(F)(F)F)NC(Cc1ccccc1)NS2(=O)=O (stereo not given) MET

Lookup CC(=O)OCC(CCn1cnc2cnc(N)nc21)COC(C)=O NOT MET

Lookup c1ccc2c(CC3=NCCN3)cccc2c1 NOT MET

Lookup NS(=O)(=O)c1cc2c(cc1C(F)(F)F)NCNS2(=O)=O MET

Lookup CC12CC3CC(C)(C1)CC(N)(C3)C2 NOT MET

Lookup CC(C)C(=O)Nc1ccc([N+](=O)[O-])c(C(F)(F)F)c1 MET

Lookup CCOC(=O)C1=C(COCCN)NC(C)=C(C(=O)OC)C1c1ccccc1Cl (stereo not given) NOT MET

Lookup COc1ccccc1OCC(O)COC(N)=O (stereo not given) NOT MET

Lookup CN(C)CCCN1c2ccccc2Sc2ccc(Cl)cc21 MET

Lookup CC(=O)OCC[N+](C)(C)C MET

Lookup CC(=O)Nc1nnc(S(N)(=O)=O)s1 MET

Lookup c1ccc2c(c1)CCCC2C1=NCCN1 (stereo not given) MET

Lookup CCn1cc(C(=O)O)c(=O)c2cc(F)c(N3CCN(C)CC3)cc21 MET

Lookup CN[C@@H]1[C@H](O)[C@H](NC)[C@H]2O[C@@]3(O)C(=O)C[C@@H](C)O[C@H]3O[C@@H]2[C@H]1O MET

Lookup CCCCC1=NC2(CCCC2)C(=O)N1Cc1ccc(-c2ccccc2-c2nn[nH]n2)cc1 MET

Lookup CCN(CC)CCOC(=O)C1(C2CCCCC2)CCCCC1 MET

Lookup CCCNCC(O)COc1ccccc1C(=O)CCc1ccccc1 (stereo not given) MET

Lookup Oc1ccc(/C=C/c2cc(O)cc(O)c2)cc1 MET

Lookup NC(=O)N1c2ccccc2C=Cc2ccccc21 NOT MET

Lookup OC(CCN1CCCC1)(c1ccccc1)C1CCCCC1 (stereo not given) MET

Lookup CN(C)CCOC(c1ccc(Cl)cc1)c1ccccn1 (stereo not given) MET
